test system: BT-549 breast; experiment: NCI tumour cell line growth inhibition, 48 h
I'd appreciate it if you could supply TGI values for the items below.

In: Given the entry CC(=O)OC1COC(n2nc(N)nc2C)C(OC(C)=O)C1OC(C)=O (stereo not given) , report its measured TGI.
Out: > 100 µM

In: Please report the recorded TGI for "NS(=O)(=O)c1ccc(N=Nc2c(O)[nH]c3ccc(Cl)cc23)cc1" .
Out: > 25 µM

In: Consider the molecule "c1cncc(CNCCN2CCNCC2)c1" and give its measured TGI.
Out: > 100 µM

In: Would you kindly share the measured TGI for COc1ccc(C2NC(=O)c3cc4c(cc3N2)OCO4)cc1 (stereo not given) ?
Out: > 100 µM

In: Suppose we examine the molecule "O=C1/C(=C/c2ccc(Cl)cc2)N=C(c2ccccc2)N1c1nc2ccc(Sc3ccccc3)cc2[nH]1" ; what TGI value has been reported?
Out: 57.7 µM

In: So what's the measured TGI for this one? COc1ccc2c(c1OC)C(=O)OC2C1c2c(c(N)c3c(c2OC)OCO3)CCN1C (stereo not given)
Out: 9.12 µM

In: Please look up its TGI: "CCOP(=O)(OCC)C(C)(C)OC(=O)NC(F)(F)F"
Out: > 100 µM

In: Please look up its TGI: "CCN(CC)C(=S)SS(=O)(=O)c1ccc(N)cc1"
Out: > 100 µM

In: Can you share its TGI? I mean this molecule: CCCCCCCCCCCCCCCC(=O)Nc1ccn(C2CC(OP(=O)(O)OCC3OC(n4cc(F)c(=O)[nH]c4=O)CC3OC(C)=O)C(CO)O2)c(=O)n1 (stereo not given)
Out: 62.2 µM

In: Looking for the measured TGI of "COc1ccc(/C=C/C(=O)Nc2cc(/C=C\c3cc(OC)c(OC)c(OC)c3)cc(OC)c2OC)cc1OC" , can you help?
Out: 57.8 µM

In: Report TGI for "COc1cc(-c2cc(-c3nc4ccc(F)cc4[nH]3)[nH]n2)cc(OC)c1OC" please.
Out: 6.28 µM

In: Give its TGI value. Item: "O=C(NCCn1ccnn1)Nc1ccccc1"
Out: > 100 µM

In: Using the record for "O=C(Nc1ccccc1C(=O)N/N=C(\c1ccccc1)c1ccccn1)c1ccccc1" , report its TGI.
Out: > 100 µM

In: What value of measured TGI is listed for CCOC(=O)/C=C/C1OC(C)(C)OC1/C=C/C(=O)OCC (stereo not given) ?
Out: > 100 µM

In: Suppose we examine the molecule "O=C(OCc1ccccc1)c1nc2ccccc2n1S(=O)(=O)c1ccccc1" ; what TGI value has been reported?
Out: > 100 µM

In: Look up TGI: CS(=O)(=O)Nc1ccc2c(c1)N(S(C)(=O)=O)CC2COS(C)(=O)=O (stereo not given)
Out: > 100 µM

In: Tell me the measured TGI of COC(=O)C1(CCC(=O)N(C)c2ccccc2)NNC2C(=O)N(c3ccccc3)C(=O)C21 (stereo not given) , please.
Out: > 10 µM

In: Need TGI of NC(=O)CC(N)C(N)=O (stereo not given) , thanks.
Out: > 100 µM

In: Which TGI is listed for "CO/C(=N\N=C\c1ccccc1F)c1ccncc1" ?
Out: > 10 µM

In: Recorded TGI for O=C1C=CC2(NN=C(c3ccccc3)N2c2ccccc2)c2cccc(O)c21 (stereo not given) , please?
Out: 2.69 µM
